target: mUSP18 (Mus musculus); construct: (46-368); His-tag (N); made in house; assay: High-throughput screening, ISG15ct-RhoMP, single dose 1.25 µM; assay type: biochemical, murine; details: mUSP18 %inhibition; carboxylic acid (CA) with coupling reagents DIC/HOBT; read-out: %inh CA + DIC/HOBT
Sequence (Q9WTV6 46-368): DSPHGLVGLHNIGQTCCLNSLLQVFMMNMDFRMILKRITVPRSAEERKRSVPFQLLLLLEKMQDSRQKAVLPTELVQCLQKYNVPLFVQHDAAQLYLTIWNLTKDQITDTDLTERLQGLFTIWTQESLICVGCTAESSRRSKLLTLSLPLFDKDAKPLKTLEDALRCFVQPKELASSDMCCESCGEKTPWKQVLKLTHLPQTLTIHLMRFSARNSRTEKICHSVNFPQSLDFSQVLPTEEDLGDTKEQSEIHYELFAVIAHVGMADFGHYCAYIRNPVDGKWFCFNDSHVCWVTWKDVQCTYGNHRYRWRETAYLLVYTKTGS
Provide the reported inhibition at 1.25 µM of each item.
Numbers only, in %.

Examples from the recorded data:
O=C(O)C1CCCN1C(=O)C1CC1 (stereo not drawn) [CA404]	-12.2
O=C(O)c1csc(C2CCCCC2)n1 [CA353]	1.26

Consider the following items and state reported inhibition at 1.25 µM for each.
1. COc1ccccc1N1CC(C(=O)O)CCC1=O (stereo not drawn) [CA409]
2. O=C(O)c1cccc2cc3ccccc3cc12 [CA069]
3. O=C(O)c1cnn(CC2CCCCO2)c1 (stereo not drawn) [CA174]
4. O=C(O)Cc1csc(-n2cccc2)n1 [CA183]
5. O=C(O)c1ccc(-c2ccccc2)o1 [CA250]

Reply:
1. -6.22
2. -8.94
3. 8.37
4. 3.13
5. 5.27

Give one value of inhibition at 1.25 µM per listed molecule.
1. Cc1cccc(C(=O)N2CCCCC2C(=O)O)n1 (stereo not drawn) [CA152]
2. O=C(O)c1ccc2c(c1)OCO2 [CA083]

Reply:
[6.16, -14.2]
